Test system: A/Nebraska/1/2006
Assay type: cell-based, influenza A virus
Test Context: read-out: Cell Protection Assay EC50 ± SD Comp (1)
Reported Endpoint: pEC50
Scale explanation: pEC50 corresponds to minus log10 of a concentration expressed in moles per litre.

Memo: O=C(O)[C@H]1C2CCC(CC2)C1Nc1nc(-c2c[nH]c3ncc(F)cc23)ncc1F (stereo partly shown) , reported pEC50: 8.68
